primary human T-cells data, read-out EC50
Respond with the bare value in nM.

{"molecule": "N[C@H]1CS(=O)(=O)c2cc(F)c(-c3nnc(C(=O)N4CCCC(F)(F)C4)o3)cc2N(Cc2ccc(Cl)cc2)C1=O [Example 93]", "EC50 / nM": 660}
{"molecule": "Cc1cc2c(cc1-c1nnc(C(C)C#N)o1)N(Cc1ccc(Cl)cc1)C(=O)[C@@H](N)CS2(=O)=O (stereo partly drawn) [Example 277]", "EC50 / nM": 6940}
{"molecule": "CC(C)(O)c1nnc(-c2cc3c(cc2F)S(=O)(=O)C[C@H](N)C(=O)N3Cc2ccc(Cl)cc2)o1 [Example 119]", "EC50 / nM": 1210}
{"molecule": "N[C@H]1C[S+]([O-])c2cc(F)c(-c3noc(N4CCOCC4)n3)cc2N(Cc2ccc(Cl)cc2)C1=O (single isomer, unassigned; epimer a) [Example 209]", "EC50 / nM": 5810}
{"molecule": "COC(=O)N1CC2CC(c3nc(-c4cc5c(cc4F)S(=O)(=O)C[C@H](N)C(=O)N5Cc4ccc(OC(F)(F)F)cc4)no3)(C2)C1 [Example 335]", "EC50 / nM": 819}
{"molecule": "CN(CCO)CC(C)(C)c1nnc(-c2cc3c(cc2F)S(=O)(=O)C[C@H](N)C(=O)N3Cc2ccc(Cl)cc2)o1 [Example 139]", "EC50 / nM": 4000}
{"molecule": "N[C@H]1CS(=O)(=O)c2ccc(-c3nc(CC(F)(F)F)no3)nc2N(Cc2ccc(Cl)cc2)C1=O [Example 39]", "EC50 / nM": 842}
{"molecule": "N[C@H]1C[S+]([O-])c2ccc(-c3nnc(CC(F)(F)F)o3)cc2N(Cc2ccc(OC(F)(F)F)cc2)C1=O (single isomer, unassigned; epimer b) [Example 428]", "EC50 / nM": 1580}
{"molecule": "CC(C)(C)NC(=O)c1nnc(-c2cc3c(cc2F)S(=O)(=O)C[C@H](N)C(=O)N3Cc2ccc(Cl)cc2)o1 [Example 90]", "EC50 / nM": 819}
{"molecule": "COC(=O)N1CCC(c2nnc(-c3cc4c(cc3F)S(=O)(=O)C[C@H](N)C(=O)N4Cc3ccc(Cl)cc3)o2)CC1 [Example 167]", "EC50 / nM": 122}

Hello, I am looking for reported EC50 with primary human T-cells for NC(CNc1nc(-c2cc3c(cc2F)S(=O)(=O)C[C@H](N)C(=O)N3Cc2ccc(Cl)cc2)no1)C(F)(F)F (stereo partly drawn) [Example 202] . Could you help? 1300

Hello, I am looking for reported EC50 with primary human T-cells for Cc1cc2c(cc1-c1nnc(C(C)(C)C#N)o1)N(Cc1ccc(Cl)cc1)C(=O)[C@@H](N)CS2(=O)=O [Example 276] . Could you help? 1060

###

Tested on: primary human T-cells
measurement.notes: Proliferation assay after 5 days (CellTiter-Glo, CD3 stimulation; PBS counter screen)
Assay type: cell-based
condition.notes: Homo sapiens, T-cell, 120 h, CD3 stimulation, 5 days; normalized to reference compound A1 as stimulator control = 100%, DMSO neutral control; read-out: Emax proliferation (% activation)
test.readout: Emax (%)
Respond with the bare value in %.

Example entries and their recorded answers appear below.
{"molecule": "CC(C)(C#N)Nc1nnc(-c2cc3c(cc2F)S(=O)(=O)C[C@H](N)C(=O)N3Cc2ccc(Cl)cc2)o1 [Example 486]", "units.label": "%", "Emax": 106}
{"molecule": "CN1CC(n2cc(-c3cc4c(cc3F)S(=O)(=O)C[C@H](N)C(=O)N4Cc3ccc(Cl)cc3)cn2)CC(F)(F)C1 (stereo partly drawn) [Example 281]", "units.label": "%", "Emax": 89}
{"molecule": "N[C@H]1CS(=O)(=O)c2cc(F)c(-c3nnc(C4CCCCC4(F)F)o3)cc2N(Cc2ccc(OC(F)(F)F)cc2)C1=O (stereo partly drawn) [Example 53]", "units.label": "%", "Emax": 243}
{"molecule": "CC(C)(C)c1nnc(-c2cc3c(cc2F)S(=O)(=O)C[C@H](N)C(=O)N3Cc2ccc(S(C)(=O)=O)cc2F)o1 [Example 240]", "units.label": "%", "Emax": 74}
{"molecule": "CC1(c2nnc(-c3cc4c(cc3F)S(=O)(=O)C[C@H](N)C(=O)N4Cc3ccc(Cl)cc3)o2)CCN(S(C)(=O)=O)CC1 [Example 170]", "units.label": "%", "Emax": 97}
{"molecule": "CC(C)(C#N)Nc1nc(-c2cc3c(cc2F)S(=O)(=O)C[C@H](N)C(=O)N3Cc2ccc(Cl)cc2)no1 [Example 199]", "units.label": "%", "Emax": 71}
{"molecule": "N[C@H]1CS(=O)(=O)c2cc(F)c(-c3noc(NC4CC(F)(F)C4)n3)cc2N(Cc2ccc(Cl)cc2)C1=O [Example 206]", "units.label": "%", "Emax": 168}
{"molecule": "N[C@H]1CS(=O)(=O)c2ccc(-c3nnc(C(F)(F)C(F)(F)F)o3)cc2N(Cc2ccc(OC(F)(F)F)cc2)C1=O [Example 415]", "units.label": "%", "Emax": 64}
{"molecule": "CC(C)(CN1CCCCC1)c1nnc(-c2cc3c(cc2F)S(=O)(=O)C[C@H](N)C(=O)N3Cc2ccc(Cl)cc2)o1 [Example 141]", "units.label": "%", "Emax": 91}
{"molecule": "CC(CO)(CCl)c1nnc(-c2cc3c(cc2F)S(=O)(=O)C[C@H](N)C(=O)N3Cc2ccc(Cl)cc2)o1 (stereo partly drawn) [Example 115]", "units.label": "%", "Emax": 127}

Entry CC(C)(C)c1ccn(-c2cc3c(cc2F)S(=O)(=O)C[C@H](N)C(=O)N3Cc2ccc(Cl)cc2)n1 [Example 283] has what Emax? 67

Entry CC(C)(C)c1ncn(-c2cc3c(cc2F)S(=O)(=O)C[C@H](N)C(=O)N3Cc2ccc(Cl)cc2)n1 [Example 526] has what Emax? 125
